- ASSAYED_TARGET: FGFR4 (Homo sapiens, UniProt P22455)
- Sequence (P22455 22-802): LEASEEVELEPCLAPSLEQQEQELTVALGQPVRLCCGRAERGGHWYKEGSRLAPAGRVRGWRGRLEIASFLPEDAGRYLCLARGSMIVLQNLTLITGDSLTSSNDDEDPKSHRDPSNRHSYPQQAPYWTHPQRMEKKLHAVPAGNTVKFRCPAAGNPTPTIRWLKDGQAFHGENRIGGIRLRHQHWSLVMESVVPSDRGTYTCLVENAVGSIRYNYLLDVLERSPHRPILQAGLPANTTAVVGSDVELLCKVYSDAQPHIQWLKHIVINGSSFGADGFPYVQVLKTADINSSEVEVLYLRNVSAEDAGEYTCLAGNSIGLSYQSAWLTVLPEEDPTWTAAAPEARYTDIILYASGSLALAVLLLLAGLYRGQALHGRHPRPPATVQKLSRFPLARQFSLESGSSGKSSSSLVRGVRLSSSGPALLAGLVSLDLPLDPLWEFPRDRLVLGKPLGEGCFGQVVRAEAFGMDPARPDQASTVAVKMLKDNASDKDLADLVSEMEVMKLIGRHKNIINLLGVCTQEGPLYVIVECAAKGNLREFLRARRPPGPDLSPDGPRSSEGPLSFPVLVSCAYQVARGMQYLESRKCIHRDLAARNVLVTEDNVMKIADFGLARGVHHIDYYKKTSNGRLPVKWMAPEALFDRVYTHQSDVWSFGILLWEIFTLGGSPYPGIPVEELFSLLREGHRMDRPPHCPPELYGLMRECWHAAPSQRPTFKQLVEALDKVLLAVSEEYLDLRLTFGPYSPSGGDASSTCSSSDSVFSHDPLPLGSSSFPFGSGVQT
- METHOD: FGFR4 kinase activity inhibition (Caliper mobility shift assay)
- Format: biochemical
- ASSAY_SETUP: read-out: FGFR kinase activity inhibition (IC50, nM) FGFR4
For each entry below, report its IC50 value.

Under FGFR4 (Homo sapiens, UniProt P22455): IC50 value of COc1cc(OC)c(Cl)c(NC(=O)N(C)c2cc(Nc3ccc4c(c3)OC[C@H]3CN(C)CCN43)ncn2)c1Cl ?
< 200 nM

Here is the next compound: COc1cc(OC)c(Cl)c(NC(=O)N(C)c2cc(Nc3ccc4c(c3)OC[C@@H]3CN(C)CCN43)ncn2)c1Cl
< 200 nM

Here is the next compound: CCN1CCN2c3ccc(Nc4cc(N(C)C(=O)Nc5c(Cl)c(OC)cc(OC)c5Cl)ncn4)cc3OC[C@@H]2C1
< 200 nM

Here is the next compound: C=CC(=O)Nc1cc2c(cc1Nc1cc(N(C)C(=O)Nc3c(Cl)c(OC)cc(OC)c3Cl)ncn1)OC[C@@H]1CN(C)CCN21
< 20 nM

Here is the next compound: C=CC(=O)Nc1ccc(CN(C(=O)Nc2c(Cl)c(OC)cc(OC)c2Cl)c2cc(Nc3ccc4c(c3)OC[C@@H]3CN(C)CCN43)ncn2)cc1 [Compound 11S]
< 200 nM

----------
For each entry below, report its IC50 value.
- ASSAYED_TARGET: FGFR3 (Homo sapiens, UniProt P22607)
- Sequence (P22607 23-806): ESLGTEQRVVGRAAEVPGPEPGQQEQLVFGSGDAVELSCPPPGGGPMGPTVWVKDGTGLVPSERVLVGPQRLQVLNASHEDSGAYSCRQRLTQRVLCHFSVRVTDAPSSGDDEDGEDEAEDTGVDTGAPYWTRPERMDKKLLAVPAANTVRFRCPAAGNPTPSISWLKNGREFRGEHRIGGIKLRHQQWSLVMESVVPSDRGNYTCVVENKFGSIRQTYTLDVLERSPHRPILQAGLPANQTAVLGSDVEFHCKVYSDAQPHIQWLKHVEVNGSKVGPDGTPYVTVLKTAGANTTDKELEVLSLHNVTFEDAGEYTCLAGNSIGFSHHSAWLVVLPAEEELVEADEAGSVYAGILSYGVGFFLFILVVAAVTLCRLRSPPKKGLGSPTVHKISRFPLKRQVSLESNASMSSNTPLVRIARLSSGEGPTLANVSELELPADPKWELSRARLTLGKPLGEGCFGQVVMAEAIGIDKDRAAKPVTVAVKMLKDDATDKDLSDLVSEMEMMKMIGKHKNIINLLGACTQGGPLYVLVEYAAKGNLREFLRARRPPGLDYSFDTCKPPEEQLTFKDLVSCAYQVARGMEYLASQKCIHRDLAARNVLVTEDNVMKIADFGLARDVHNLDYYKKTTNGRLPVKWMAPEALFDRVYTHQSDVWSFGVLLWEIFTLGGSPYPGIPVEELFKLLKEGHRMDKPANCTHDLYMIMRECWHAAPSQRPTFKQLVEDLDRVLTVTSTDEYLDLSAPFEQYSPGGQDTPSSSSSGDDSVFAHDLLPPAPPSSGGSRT
- METHOD: FGFR3 kinase activity inhibition (Caliper mobility shift assay)
- Assay type: biochemical
- ASSAY_SETUP: read-out: FGFR kinase activity inhibition (IC50, nM) FGFR3

# lookup: IC50 of COc1cc(OC)c(Cl)c(NC(=O)N(C)c2cc(Nc3ccc(N4CC5CN(C)CC(C4)C5(F)F)cc3)ncn2)c1Cl
< 10 nM

Here is the next molecule: CCN1CCN2c3ccc(Nc4cc(N(C)C(=O)Nc5c(Cl)c(OC)cc(OC)c5Cl)ncn4)cc3OC[C@@H]2C1
< 10 nM

Here is the next molecule: COc1cc(OC)c(Cl)c(NC(=O)N(C)c2cc(Nc3ccc4c(c3)OC[C@H]3CN(C)CCN43)ncn2)c1Cl
< 10 nM

Here is the next molecule: COc1cc(OC)c(Cl)c(NC(=O)N(C)c2cc(Nc3ccc4c(c3)OCC3CN(C)CCN43)ncn2)c1Cl (stereo not shown)
< 10 nM

Here is the next molecule: COc1cc(OC)c(Cl)c(NC(=O)N(C)c2cc(Nc3ccc4c(c3)OCCN(C)CCO4)ncn2)c1Cl
< 20 nM

Here is the next molecule: C=CC(=O)Nc1cc2c(cc1Nc1cc(N(C)C(=O)Nc3c(Cl)c(OC)cc(OC)c3Cl)ncn1)OC[C@@H]1CN(C)CCN21
> 1000 nM

Here is the next molecule: COc1cc(OC)c(Cl)c(NC(=O)N(C)c2cc(Nc3ccc4c(c3)OC[C@@H]3CN(C)CCN43)ncn2)c1Cl
< 10 nM

----------
- ASSAYED_TARGET: FGFR2 (Homo sapiens, UniProt P21802)
- Sequence (P21802 22-821): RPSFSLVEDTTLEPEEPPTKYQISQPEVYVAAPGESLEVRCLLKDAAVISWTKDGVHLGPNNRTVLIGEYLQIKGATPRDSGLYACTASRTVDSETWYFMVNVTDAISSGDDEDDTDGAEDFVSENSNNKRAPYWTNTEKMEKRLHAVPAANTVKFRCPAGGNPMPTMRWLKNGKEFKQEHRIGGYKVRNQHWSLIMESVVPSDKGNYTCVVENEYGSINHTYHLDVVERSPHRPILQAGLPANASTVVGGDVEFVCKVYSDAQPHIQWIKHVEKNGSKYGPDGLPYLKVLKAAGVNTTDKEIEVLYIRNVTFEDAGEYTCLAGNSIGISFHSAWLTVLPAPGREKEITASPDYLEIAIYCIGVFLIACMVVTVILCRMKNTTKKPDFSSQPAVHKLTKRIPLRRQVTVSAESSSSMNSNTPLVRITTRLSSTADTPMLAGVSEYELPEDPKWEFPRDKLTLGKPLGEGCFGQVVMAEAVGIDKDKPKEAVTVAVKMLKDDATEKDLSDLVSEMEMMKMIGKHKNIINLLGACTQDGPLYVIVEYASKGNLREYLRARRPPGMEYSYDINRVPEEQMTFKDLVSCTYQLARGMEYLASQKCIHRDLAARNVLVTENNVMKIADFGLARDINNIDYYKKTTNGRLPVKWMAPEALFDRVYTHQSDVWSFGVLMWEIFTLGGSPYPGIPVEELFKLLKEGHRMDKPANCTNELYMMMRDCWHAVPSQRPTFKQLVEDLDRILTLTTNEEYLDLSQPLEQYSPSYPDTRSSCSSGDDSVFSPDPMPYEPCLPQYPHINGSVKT
- METHOD: FGFR2 kinase activity inhibition (Caliper mobility shift assay)
- Assay type: biochemical
- ASSAY_SETUP: read-out: FGFR kinase activity inhibition (IC50, nM) FGFR2
MEASUREMENT_TYPE: IC50

# lookup: IC50 of C=CC(=O)Nc1cc2c(cc1Nc1cc(N(C)C(=O)Nc3c(Cl)c(OC)cc(OC)c3Cl)ncn1)OC[C@@H]1CN(C)CCN21
> 1000 nM

Here is the next molecule: CCN1CCN2c3ccc(Nc4cc(N(C)C(=O)Nc5c(Cl)c(OC)cc(OC)c5Cl)ncn4)cc3OC[C@@H]2C1
< 10 nM

Here is the next molecule: COc1cc(OC)c(Cl)c(NC(=O)N(C)c2cc(Nc3ccc4c(c3)OC[C@H]3CN(C5CC5)CCN43)ncn2)c1Cl
< 50 nM

Here is the next molecule: COc1cc(OC)c(Cl)c(NC(=O)N(C)c2cc(Nc3ccc4c(c3)OC[C@H]3CN(C)CC(=O)N43)ncn2)c1Cl
< 10 nM

Here is the next molecule: COc1cc(OC)c(Cl)c(NC(=O)N(C)c2cc(Nc3ccc4c(c3)OC[C@H]3COCCN43)ncn2)c1Cl
< 20 nM

Here is the next molecule: COc1cc(OC)c(Cl)c(NC(=O)N(C)c2cc(Nc3ccc4c(c3)OC[C@H]3CN(C(C)=O)CCN43)ncn2)c1Cl
< 10 nM
